# assay-system: human RORγ-LBD (Homo sapiens, UniProt P51449)
# Construct: made in house; host or cells: E. coli (BL-21)
# Sequence (P51449 262-518): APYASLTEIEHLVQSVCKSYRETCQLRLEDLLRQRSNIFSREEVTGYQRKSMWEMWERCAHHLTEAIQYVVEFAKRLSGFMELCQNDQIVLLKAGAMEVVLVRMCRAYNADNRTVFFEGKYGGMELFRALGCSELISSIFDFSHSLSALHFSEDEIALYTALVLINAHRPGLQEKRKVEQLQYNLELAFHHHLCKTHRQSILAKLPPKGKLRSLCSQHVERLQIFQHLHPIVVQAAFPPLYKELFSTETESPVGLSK
# test-protocol: ROR gamma coactivator peptide recruitment Alphascreen assay (RORγ-LBD binding to GRIP1 coactivator peptide)
# Assay type: biochemical
# assay-context: 5 nM human RORγ-LBD, 30 nM 7-β-hydroxycholesterol, 50 nM biotinylated GRIP1 coactivator peptide, overnight incubation at room temperature; read-out: result (pIC50, RORγ coactivator peptide recruitment Alphascreen assay) (converted)
IC50 vs 50 nM: less than gives Met; not less than gives Not met.

Please indicate whether the reported IC50 of O=C(CN(Cc1ccc(F)cc1)C(=O)c1cnn([C@H]2CC[C@H](C(=O)O)CC2)c1C(F)(F)F)c1c(Cl)cnc2ccccc12 [Example 539] is strictly below 50 nM. Not met

Strictly below 50 nM in IC50? C[C@H]1C[C@H](n2ncc(C(=O)N(CC(=O)c3c(Cl)cncc3Cl)CC(C)(C)C(F)(F)F)c2C(F)(F)F)CC[C@H]1C(=O)O [Example 875] Met

Threshold test, IC50 < 50 nM: C[C@@H]1C[C@H](n2ncc(C(=O)N(CC(=O)c3c(Cl)cccc3Cl)CC3CC(C)(C)C3)c2C(F)(F)F)CC[C@@H]1C(=O)O [Example 683] Met

Below 50 nM on IC50? Entry COc1ncc(Cl)c(CCN(CC(C)(C)C)C(=O)c2cnn([C@H]3CC[C@H](C(=O)O)[C@H](C)C3)c2C(F)(F)F)c1Cl [Example 887] Met

Confirm or reject: IC50 of COC(CN(CC(C)(C)C)C(=O)c1cnn([C@H]2CC[C@H](C(=O)O)CC2)c1C(F)(F)F)c1c(Cl)cc(C)cc1Cl (relative stereo) [Example 529] lies strictly below 50 nM Not met

Given C[C@]1(C(=O)O)CC[C@H](n2ncc(C(=O)N(CC(=O)c3c(Cl)cncc3Cl)CC34CC(C3)C4)c2C(F)(F)F)CC1 [Example 854] , is recorded IC50 strictly lower than 50 nM? Met

Lab log: compare recorded IC50 with 50 nM; is it strictly lower for Cc1cc(Cl)c(C(=O)CN(CC2(C)CCC2)C(=O)c2cnn([C@H]3CC[C@](C)(C(=O)O)CC3)c2C(F)(F)F)c(Cl)c1 [Example 731] ? Met

Does this molecule meet the criterion IC50 < 50 nM? Cc1ncc(Cl)c(C(=O)CN(C(=O)c2cnn([C@H]3CC[C@](C)(C(=O)O)CC3)c2C(F)(F)F)[C@H]2C[C@@H]3[C@H](C2)C3(C)C)c1Cl [Example 758] Met

Criterion: IC50 strictly below 50 nM. Is it met by C[C@@H]1C[C@@H](n2ncc(C(=O)N(CC(=O)c3c(Cl)cccc3Cl)CC3CC(C)(C)C3)c2C(F)(F)F)CC[C@@H]1C(=O)O [Example 663] ? Met

Please determine if CC1(C)C[C@@H](CN(CC(=O)c2c(Cl)cccc2Cl)C(=O)c2cnn([C@H]3CC[C@](C)(C(=O)O)CC3)c2C(F)(F)F)O1 [Example 629] is below 50 nM in terms of IC50. Met

Input CC1(C)CC(CN(CCc2c(Cl)cncc2Cl)C(=O)c2cnn([C@H]3CC[C@](C)(C(=O)O)CC3)c2C(F)(F)F)C1 [Example 556] ; condition: IC50 strictly below 50 nM. Does it hold? Met

hey, is IC50 for CC(C)CCN(CC(=O)c1c(Cl)cncc1Cl)C(=O)c1cnn([C@H]2C[C@@H]3[C@H](C2)[C@@H]3C(=O)O)c1C(F)(F)F [Example 765] lower than 50 nM or not? Not met
